FYI, the data here is from paper PMC11678245.

- study-target: AfCYP51B-6×His (Aspergillus fumigatus)
- assay-text: Type II binding of azole drugs (difference spectra)
- condition-info: type II binding
Hill Number values, listed per item

# compound, study-target, Hill Number
measured = [
    ("O[C@@](Cn1cnnn1)(c1ccc(F)cc1F)C(F)(F)c1ccc(-c2ccc(OCC(F)(F)F)cc2)cn1 [VT-1161, oteseconazole]", "AfCYP51B-6×His (Aspergillus fumigatus)", 0.87),
    ("CC1COC(Cn2cncn2)(c2ccc(Oc3ccc(Cl)cc3)cc2Cl)O1 (centres unmarked) [DCZ, difenoconazole]", "AfCYP51B-6×His (Aspergillus fumigatus)", 1.55),
    ("C[C@@H](c1ncncc1F)[C@](O)(Cn1cncn1)c1ccc(F)cc1F [VCZ, voriconazole]", "AfCYP51B-6×His (Aspergillus fumigatus)", 1.12),
    ("OC(Cn1cncn1)(Cn1cncn1)c1ccc(F)cc1F [FLC, fluconazole]", "AfCYP51B-6×His (Aspergillus fumigatus)", 1.75),
    ("CC[C@@H]([C@H](C)O)n1ncn(-c2ccc(N3CCN(c4ccc(OC[C@@H]5CO[C@@](Cn6cncn6)(c6ccc(F)cc6F)C5)cc4)CC3)cc2)c1=O [PCZ, posaconazole]", "AfCYP51B-6×His (Aspergillus fumigatus)", 1.41),
]

* * *

MIC80 values, listed per item
- Tested on: S. cerevisiae strain ADΔΔ (native ScCYP51)
- assay-text: MIC80 susceptibility, host strain ADΔΔ
- Format: cell-based
- condition-info: Saccharomyces cerevisiae, Table 2, SD pH 6.8, 48 h, 30 °C
Numbered stars: 1 amine (or outer) side, 2 acyl side, 3 side chain; on linkers, the order of the positions; unused ones are H or OH. Bridge positions count the residues as written; N and C are the ends. Square brackets hold non-standard residues; d marks the D form. Peptide text beside a SMILES is read from it. * marks the point of attachment. hTyr(3S-OH,4S-OH,3'-OSO3H) = N[C@H](C(=O)O)[C@H](O)[C@@H](O)c1ccc(O)c(OS(=O)(=O)O)c1; Orn(4R-OH,5R-OH) = O=C([C@H](C[C@@H](O)[C@@H](O)N[*:3])N[*:1])[*:2]; Pro(3S-OH,4S-Me) = C[C@H]1CN[C@H](C(=O)O)[C@H]1O; X1 = CCCCCOc1ccc(-c2cc(-c3ccc(C(=O)*)cc3)no2)cc1; Gln(3R-OH) = NC(=O)C[C@@H](O)[C@H](N)C(=O)O; Hyp = O=C(O)[C@@H]1C[C@@H](O)CN1

# compound, display-unit, qualifier-operator, MIC80
rows = [
    ("C[C@@H](c1ncncc1F)[C@](O)(Cn1cncn1)c1ccc(F)cc1F [VCZ, voriconazole]", "µM", "=", 0.06),
    ("CCCCCOc1ccc(-c2cc(-c3ccc(C(=O)N[C@H]4C[C@@H](O)[C@@H](O)NC(=O)[C@@H]5[C@@H](O)[C@@H](C)CN5C(=O)[C@H]([C@H](O)CC(N)=O)NC(=O)[C@H]([C@H](O)[C@@H](O)c5ccc(O)c(OS(=O)(=O)O)c5)NC(=O)[C@@H]5C[C@@H](O)CN5C(=O)[C@H]([C@@H](C)O)NC4=O)cc3)no2)cc1 [MCF, Micafungin] (X1-[Orn(4R-OH,5R-OH)]T[Hyp][hTyr(3S-OH,4S-OH,3'-OSO3H)][Gln(3R-OH)][Pro(3S-OH,4S-Me)]; lactam 1-C)", "µM", "=", 0.22),
    ("O[C@@](Cn1cnnn1)(c1ccc(F)cc1F)C(F)(F)c1ccc(-c2ccc(OCC(F)(F)F)cc2)cn1 [VT-1161, oteseconazole]", "µM", "=", 0.01),
    ("OC(Cn1cncn1)(Cn1cncn1)c1ccc(F)cc1F [FLC, fluconazole]", "µM", "=", 3.3),
    ("CC1COC(Cn2cncn2)(c2ccc(Oc3ccc(Cl)cc3)cc2Cl)O1 (centres unmarked) [DCZ, difenoconazole]", "µM", "<", 0.01),
]

* * *

MIC80 values, listed per item
- Test system: S. cerevisiae strain ARE (AfCyp51A-6×His, AfCprA2, AfErg6-FLAG)
- assay-text: MIC80 susceptibility, strain ARE
- Assay type: cell-based, Saccharomyces cerevisiae
- condition-info: Saccharomyces cerevisiae; Table 3; strain ARE; ± SD; read-out: MIC80
- Method: The susceptibilities of S. cerevisiae strains to antifungal drugs were determined as minimum growth inhibitory concentration (MIC) values in 200 μL SD pH 6.8 [24]. […] Cell growth after 48 h incubation at 30 °C with shaking at 200 rpm was determined at 600 nm using a BioTek™ Synergy™ 2 multi-Mode microplate reader controlled using Gen5™ Data Analysis Software version 3.16.10 (BioTek Instruments, Winooski, VT, USA). […]
assay-readout: MIC80 (µM)

# molecule, assay-readout, value-reported
measured = [
    ("C[C@@H](c1nc(-c2ccc(C#N)cc2)cs1)[C@](O)(Cn1cncn1)c1cc(F)ccc1F [IVC, isavuconazole]", "MIC80", 0.021),
    ("OC(Cn1cncn1)(Cn1cncn1)c1ccc(F)cc1F [FLC, fluconazole]", "MIC80", 151),
    ("C[C@@H](c1nc(-c2ccc(C#N)cc2)cs1)[C@](O)(Cn1cncn1)c1ccc(F)cc1F [RVC, ravuconazole]", "MIC80", 0.0088),
    ("CC[C@@H]([C@H](C)O)n1ncn(-c2ccc(N3CCN(c4ccc(OC[C@@H]5CO[C@@](Cn6cncn6)(c6ccc(F)cc6F)C5)cc4)CC3)cc2)c1=O [PCZ, posaconazole]", "MIC80", 0.05),
]

* * *

- Test system: S. cerevisiae strain ARE T289A (AfCyp51A-6×His T289A, AfCprA2, AfErg6-FLAG)
- assay-text: MIC80 susceptibility, strain T289A
- Assay type: cell-based, Saccharomyces cerevisiae
- condition-info: Table 3; strain ARE T289A; ± SD

# compound, MIC80, µM
measured = [
    ("OC(Cn1cncn1)(Cn1cncn1)c1ccccc1F [MCC7916]", 52),
    ("OC(Cn1cncn1)(Cn1cncn1)c1ccccc1 [MCC7915]", 248),
    ("OC(Cn1cncn1)(Cn1cncn1)c1cc(F)ccc1F [MCC8768]", 106),
    ("OC(Cn1cncn1)(Cn1cncn1)c1ccc(F)cc1 [MCC7917]", 103),
]

* * *

- study-target: AfCYP51B-6×His (Aspergillus fumigatus)
- assay-text: Type I binding of substrates (difference spectra)

# compound, display-unit, Kd
rows = [
    ("C=C(CC[C@@H](C)[C@H]1CC[C@@]2(C)C3=C(CC[C@]12C)[C@@]1(C)CC[C@H](O)C(C)(C)C1CC3)C(C)C (stereo partly shown) [Eburicol, eburicol]", "µM", 71),
]

* * *

λtrough (type II difference spectrum) values, listed per item
- study-target: AfCYP51B-6×His (Aspergillus fumigatus)
- assay-text: Type II binding of azole drugs (difference spectra)
- condition-info: 1 μM enzyme

# compound, display-unit, λtrough (type II difference spectrum)
measured = [
    ("C[C@@H](c1ncncc1F)[C@](O)(Cn1cncn1)c1ccc(F)cc1F", "nm", 410),
    ("CC[C@@H]([C@H](C)O)n1ncn(-c2ccc(N3CCN(c4ccc(OC[C@@H]5CO[C@@](Cn6cncn6)(c6ccc(F)cc6F)C5)cc4)CC3)cc2)c1=O", "nm", 388),
    ("CC1COC(Cn2cncn2)(c2ccc(Oc3ccc(Cl)cc3)cc2Cl)O1 (centres unmarked)", "nm", 410),
    ("O[C@@](Cn1cnnn1)(c1ccc(F)cc1F)C(F)(F)c1ccc(-c2ccc(OCC(F)(F)F)cc2)cn1", "nm", 391),
    ("OC(Cn1cncn1)(Cn1cncn1)c1ccc(F)cc1F", "nm", 407),
]

* * *

ΔAmax (type II binding) values, listed per item
- study-target: AfCYP51B-6×His (Aspergillus fumigatus, UniProt E9QY26)
- Sequence (E9QY26 whole entry): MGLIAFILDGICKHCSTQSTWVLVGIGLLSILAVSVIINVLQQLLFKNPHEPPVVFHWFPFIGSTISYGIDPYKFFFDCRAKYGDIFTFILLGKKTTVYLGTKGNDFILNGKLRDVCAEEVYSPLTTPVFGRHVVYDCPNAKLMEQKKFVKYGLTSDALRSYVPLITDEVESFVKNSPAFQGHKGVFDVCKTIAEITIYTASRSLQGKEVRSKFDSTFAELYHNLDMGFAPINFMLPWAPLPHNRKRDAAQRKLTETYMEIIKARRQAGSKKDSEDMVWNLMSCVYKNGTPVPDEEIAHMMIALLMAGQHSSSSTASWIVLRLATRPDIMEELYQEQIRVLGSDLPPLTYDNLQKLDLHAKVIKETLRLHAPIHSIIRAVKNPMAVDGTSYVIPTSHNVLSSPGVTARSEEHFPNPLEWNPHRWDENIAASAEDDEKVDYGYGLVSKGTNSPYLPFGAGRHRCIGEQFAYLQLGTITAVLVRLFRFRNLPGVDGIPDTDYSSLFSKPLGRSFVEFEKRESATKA
- assay-text: Type II binding of azole drugs (difference spectra)
- condition-info: 1 μM enzyme, Hill equation
assay-readout: ΔAmax (type II binding)

# molecule, value-reported
data = [
    ("CC1COC(Cn2cncn2)(c2ccc(Oc3ccc(Cl)cc3)cc2Cl)O1 (centres unmarked) [DCZ, difenoconazole]", 0.10),
    ("O[C@@](Cn1cnnn1)(c1ccc(F)cc1F)C(F)(F)c1ccc(-c2ccc(OCC(F)(F)F)cc2)cn1 [VT-1161, oteseconazole]", 0.11),
    ("C[C@@H](c1ncncc1F)[C@](O)(Cn1cncn1)c1ccc(F)cc1F [VCZ, voriconazole]", 0.03),
    ("OC(Cn1cncn1)(Cn1cncn1)c1ccc(F)cc1F [FLC, fluconazole]", 0.09),
    ("CC[C@@H]([C@H](C)O)n1ncn(-c2ccc(N3CCN(c4ccc(OC[C@@H]5CO[C@@](Cn6cncn6)(c6ccc(F)cc6F)C5)cc4)CC3)cc2)c1=O [PCZ, posaconazole]", 0.10),
]
